Below, each of the compounds is paired with its reported fold induction at 50 µM value.
System: A. baumannii strain 98-37-09
protocol: AK assay 384-well format, Prestwick library screening
Type: cell-based, Acinetobacter baumannii
conditionLabel: Acinetobacter baumannii, 983709, 3 h; planktonic A. baumannii; 50 μM final drug concentration; 384-well; cutoff for positive-scoring molecules 3-fold increase; read-out: AK-based Prestwick Library Screening Results: A. baumannii (increase in extracellular AK activity)
Where a name gives a salt, the structure may show the parent alone.
Please state the value as a number alone, without comment.

Lab note: measured fold induction at 50 µM of CN(C(=O)CN(CCO)CC(=O)N(C)C(C)(C)Cc1ccccc1)C(C)(C)Cc1ccccc1 was 4.2

Entry NCCCC[C@H](N[C@@H](CCc1ccccc1)C(=O)O)C(=O)N1CCC[C@H]1C(=O)O ; fold induction at 50 µM = 1.3

What the record says about CN1CCN(CCCN2c3ccccc3Sc3ccc(C(F)(F)F)cc32)CC1 [Trifluoperazine dihydrochloride] : fold induction at 50 µM is 3.4

# compound CO[C@]12C[C@@H](COC(=O)c3cncc(Br)c3)CN(C)[C@@H]1Cc1cn(C)c3cccc2c13 ; its fold induction at 50 µM = 1.4

For C[C@]12CCC(=O)C=C1C=C[C@@H]1[C@@H]2CC[C@@]2(C)[C@H]1CC[C@@]2(O)CCC(=O)O [Canrenoic acid potassium salt] the compound record lists fold induction at 50 µM as 1.5

***
Value of fold induction at 50 µM reported for the compound CC(=O)OCC(=O)[C@@]1(O)[C@H](C)C[C@H]2[C@@H]3CCC4=CC(=O)C=C[C@]4(C)[C@@]3(F)[C@@H](O)C[C@@]21C [Dexamethasone acetate] is 1.1

Value of fold induction at 50 µM reported for the compound CCN(CC)CCNC(=O)c1cc(S(C)(=O)=O)ccc1OC [Tiapride hydrochloride] is 1.1
